system name: T1, human GLP-2 receptor (human, UniProt O95838 1-553)
T1 sequence (looked up): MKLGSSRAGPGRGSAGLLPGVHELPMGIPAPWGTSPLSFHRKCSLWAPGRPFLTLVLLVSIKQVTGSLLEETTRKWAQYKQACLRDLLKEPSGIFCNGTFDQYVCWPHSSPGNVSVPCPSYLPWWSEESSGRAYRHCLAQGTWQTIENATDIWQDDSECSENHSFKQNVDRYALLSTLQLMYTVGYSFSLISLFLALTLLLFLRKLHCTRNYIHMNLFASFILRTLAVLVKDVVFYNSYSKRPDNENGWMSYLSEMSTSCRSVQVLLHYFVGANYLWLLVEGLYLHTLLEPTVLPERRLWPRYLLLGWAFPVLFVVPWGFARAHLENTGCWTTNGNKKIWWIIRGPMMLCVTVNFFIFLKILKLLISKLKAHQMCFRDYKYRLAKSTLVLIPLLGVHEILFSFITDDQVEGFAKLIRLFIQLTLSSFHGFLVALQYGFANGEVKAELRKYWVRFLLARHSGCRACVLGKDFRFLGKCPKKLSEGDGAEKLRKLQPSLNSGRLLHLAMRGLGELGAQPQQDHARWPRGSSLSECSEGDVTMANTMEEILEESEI
experiment: cell-based or functional assay
Ends that are not written are not given here. * marks the point of attachment. Palmitoyl = CCCCCCCCCCCCCCCC(=O)*; Lauroyl = CCCCCCCCCCCC(=O)*
The following ranges of fold (EC50 vs native GLP-2) define the classes used here: A (below 1 fold), B (1 fold to below 5 fold), C (5 fold or more)

These solved cases illustrate the format of a correct answer.
| binder | qualitative label |
| --- | --- |
| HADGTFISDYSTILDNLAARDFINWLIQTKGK(Palmitoyl)K [GIP-GLP-2 co-agonist 36] | C |
| HADGTFSSDYSTILDNLAARDFINWLIQTK(Palmitoyl)ITD [GIP-GLP-2 co-agonist 23] | B |
| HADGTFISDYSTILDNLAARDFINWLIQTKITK (not fully specified (residue 1, N-terminus); also: C16 acyl group on His 1 (attachment site not given here)) [GIP-GLP-2 co-agonist 29] | C |
| HADGTFISDYSTILDNLAARDFINWLIQTKGKKNDWKHNITQ [GIP-GLP-2 co-agonist 34] | A |
| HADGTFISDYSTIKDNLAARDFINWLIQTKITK [GIP-GLP-2 co-agonist 25] | B |
| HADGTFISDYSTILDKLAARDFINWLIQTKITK [GIP-GLP-2 co-agonist 26] | A |
| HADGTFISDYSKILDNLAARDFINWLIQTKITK [GIP-GLP-2 co-agonist 24] | A |
| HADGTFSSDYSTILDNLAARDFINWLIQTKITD (not fully specified (residue 1, N-terminus); also: C16 acyl group on His 1 (attachment site not given here)) [GIP-GLP-2 co-agonist 22] | B |

q: Hello team, could you let me know which band the following binder falls into: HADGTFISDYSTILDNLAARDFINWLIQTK(Lauroyl)ITK [GIP-GLP-2 co-agonist 30]
a: C

q: Hello team, could you let me know which band the following binder falls into: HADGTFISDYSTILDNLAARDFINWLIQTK(Palmitoyl)ITK [GIP-GLP-2 co-agonist 31]
a: C

q: Hello team, could you let me know which band the following binder falls into: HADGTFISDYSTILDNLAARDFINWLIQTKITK (C16 acyl group on Lys 33 (K(c16/33), 'with C16 pos 33')) [GIP-GLP-2 co-agonist 33]
a: C

q: Hello team, could you let me know which band the following binder falls into: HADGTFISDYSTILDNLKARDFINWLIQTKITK [GIP-GLP-2 co-agonist 27]
a: A

q: Hello team, could you let me know which band the following binder falls into: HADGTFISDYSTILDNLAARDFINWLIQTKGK(Lauroyl)K [GIP-GLP-2 co-agonist 35]
a: B
